meta.source: patent US20110118447A1

Reported fold difference in affinity vs original by item:
Target: binding partner of C5A (XPA23)
Experiment: Biacore
Just the number in fold, nothing appended.

Task: Give the value of fold difference in affinity vs original reported for the following: C5A (XPA23) VH N104L (antibody, V domains shown) VH: EVQLLESGGGLVQPGGSLRLSCAASGFTFSKYFMFWVRQAPGKGLEWVSVISPSGGMTRYADSVKGRFTISRDNSKNTLYLQMNSLRAEDTAVYYCARVGYGGLSDYWGQGTLVTVSS VL: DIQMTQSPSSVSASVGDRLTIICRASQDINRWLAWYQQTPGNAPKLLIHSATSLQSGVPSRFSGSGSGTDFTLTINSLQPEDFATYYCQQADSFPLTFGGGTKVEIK
Output: 1.19

Further cases:
Task: Report fold difference in affinity vs original for C5A (XPA23) VH Y101V (antibody, V domains shown) VH: EVQLLESGGGLVQPGGSLRLSCAASGFTFSKYFMFWVRQAPGKGLEWVSVISPSGGMTRYADSVKGRFTISRDNSKNTLYLQMNSLRAEDTAVYYCARVGVGGNSDYWGQGTLVTVSS VL: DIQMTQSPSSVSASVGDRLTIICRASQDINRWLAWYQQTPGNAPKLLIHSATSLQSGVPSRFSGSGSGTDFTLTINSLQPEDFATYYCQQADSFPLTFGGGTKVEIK
Output: 0.09
